Values were extracted from ChEMBL document CHEMBL1124814.

system name: Opioid receptors; mu/kappa/delta (Homo sapiens, UniProt P41145+P41143+P35372)
assay protocol: Opioid receptors antagonist activity in smooth-muscle tissue of guinea pig ileum (GPI)
Type: functional, tissue-based, Cavia porcellus
condition parameters: target entry is the homologue from another species
Positions of bridges follow the written chain, without caps; N, C: chain ends. Residues, ends and D or L forms follow the SMILES beside them.
quantity kind: IC50 (nM)
Write the value in nM as a bare number.

Look over these answered cases.
compound: CC[C@H](C)[C@H](NC(=O)[C@H](CCCN=C(N)N)NC(=O)[C@H](CCCN=C(N)N)NC(=O)[C@H](CC(C)C)NC(=O)[C@H](Cc1ccccc1)NC(=O)CNC(=O)CNC(=O)[C@@H](N)Cc1ccc(O)cc1)C(=O)N[C@@H](CCCN=C(N)N)C(=O)N1CCC[C@H]1C(=O)N[C@@H](CCCCN)C(N)=O
experimental result: 7.5
--
compound: CC(C)C[C@H](NC(=O)[C@H](Cc1ccccc1)NC(=O)CNC(=O)CNC(=O)[C@@H](N)Cc1ccc(O)cc1)C(=O)N[C@@H](CCCN=C(N)N)C(=O)N[C@@H](CCCN=C(N)N)C(=O)N[C@@H]1CSSC[C@H](C(N)=O)NC(=O)[C@H](CC(C)C)NC(=O)[C@H](CCCCN)NC(=O)[C@@H]2CCCN2C(=O)[C@H](CCCN=C(N)N)NC1=O
experimental result: 1.75
--
compound: C[C@H]1NC(=O)[C@H](CCCN=C(N)N)NC(=O)[C@H](CCCN=C(N)N)NC(=O)[C@@H](NC(=O)[C@H](Cc2ccccc2)NC(=O)CNC(=O)CNC(=O)[C@@H](N)Cc2ccc(O)cc2)CSSC[C@@H](C(N)=O)NC(=O)[C@@H]2CCCN2C(=O)[C@H](CCCN=C(N)N)NC1=O
experimental result: 4406

// next item, IC50 requested
Lab note: CC[C@H](C)[C@@H]1NC(=O)[C@H](CCCN=C(N)N)NC(=O)[C@H](CCCN=C(N)N)NC(=O)[C@@H](NC(=O)[C@H](Cc2ccccc2)NC(=O)CNC(=O)CNC(=O)[C@@H](N)Cc2ccc(O)cc2)CSSC[C@@H](C(N)=O)NC(=O)[C@@H]2CCCN2C(=O)[C@H](CCCN=C(N)N)NC1=O (H-YGGFCRRIRPC-NH2; disulfide 5-11) gave IC50 of 1080

---

system name: Opioid receptors; mu/kappa/delta (Homo sapiens, UniProt P41145+P41143+P35372)
assay protocol: Opioid receptors antagonist activity in smooth-muscle tissue of guinea pig ileum (GPI)
Type: functional, tissue-based, Cavia porcellus
condition parameters: target entry is the homologue from another species
quantity kind: IC50 (nM)
Use nM as the unit, but write only the number.

Example compounds with recorded IC50:
smiles structure: CC(C)C[C@@H]1NC(=O)[C@H](CCCCN)NC(=O)[C@@H]2CCCN2C(=O)[C@H](CCCN=C(N)N)NC(=O)[C@@H](NC(=O)[C@H](CCCN=C(N)N)NC(=O)[C@H](CCCN=C(N)N)NC(=O)[C@H](CC(C)C)NC(=O)[C@H](Cc2ccccc2)NC(=O)CNC(=O)CNC(=O)[C@@H](N)Cc2ccc(O)cc2)CSSC[C@@H](C(N)=O)NC1=O
IC50, nM: 1.3
//
smiles structure: CC(C)C[C@@H]1NC(=O)[C@H](CCCCN)NC(=O)[C@@H]2CCCN2C(=O)[C@H](CCCN=C(N)N)NC(=O)[C@H](NC(=O)[C@H](CCCN=C(N)N)NC(=O)[C@H](CCCN=C(N)N)NC(=O)[C@H](CC(C)C)NC(=O)[C@H](Cc2ccccc2)NC(=O)CNC(=O)CNC(=O)[C@@H](N)Cc2ccc(O)cc2)CSSC[C@@H](C(N)=O)NC1=O
IC50, nM: 2.27

Turning to the following compound.
// IC50 value for "CC[C@H](C)[C@H](NC(=O)[C@H](CCCN=C(N)N)NC(=O)[C@H](CCCN=C(N)N)NC(=O)[C@H](CC(C)C)NC(=O)[C@H](Cc1ccccc1)NC(=O)CNC(=O)CNC(=O)[C@@H](N)Cc1ccc(O)cc1)C(=O)N[C@@H](CCCN=C(N)N)C(=O)N1CCC[C@H]1C(=O)N[C@@H](CCCCN)C(=O)N[C@@H](CC(C)C)C(=O)N[C@@H](CCCCN)C(N)=O" : 1.7

---

system name: Opioid receptor (Mus musculus) (UniProt P42866+P32300+P33534)
Sequence (P32300 whole entry, looked up): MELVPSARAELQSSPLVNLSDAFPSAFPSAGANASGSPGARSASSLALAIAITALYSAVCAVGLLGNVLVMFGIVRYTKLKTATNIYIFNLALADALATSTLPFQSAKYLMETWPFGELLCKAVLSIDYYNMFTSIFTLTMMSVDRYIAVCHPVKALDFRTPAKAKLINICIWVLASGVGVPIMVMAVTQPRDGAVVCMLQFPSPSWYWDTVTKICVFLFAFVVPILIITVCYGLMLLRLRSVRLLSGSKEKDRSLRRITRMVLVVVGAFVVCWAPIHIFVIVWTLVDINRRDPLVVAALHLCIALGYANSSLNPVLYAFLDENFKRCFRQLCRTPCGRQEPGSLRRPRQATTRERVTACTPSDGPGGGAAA
Sequence (P33534 whole entry, looked up): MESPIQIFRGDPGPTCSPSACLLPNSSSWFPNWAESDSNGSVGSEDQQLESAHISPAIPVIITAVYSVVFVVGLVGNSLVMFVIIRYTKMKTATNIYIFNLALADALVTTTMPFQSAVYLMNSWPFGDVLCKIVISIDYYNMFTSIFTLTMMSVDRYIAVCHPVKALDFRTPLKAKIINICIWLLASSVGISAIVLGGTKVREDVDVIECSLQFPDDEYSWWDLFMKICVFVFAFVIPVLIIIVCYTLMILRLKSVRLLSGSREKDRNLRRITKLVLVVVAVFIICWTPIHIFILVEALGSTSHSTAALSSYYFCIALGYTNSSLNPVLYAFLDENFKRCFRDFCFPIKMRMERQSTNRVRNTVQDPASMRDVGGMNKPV
Sequence (P42866 whole entry, looked up): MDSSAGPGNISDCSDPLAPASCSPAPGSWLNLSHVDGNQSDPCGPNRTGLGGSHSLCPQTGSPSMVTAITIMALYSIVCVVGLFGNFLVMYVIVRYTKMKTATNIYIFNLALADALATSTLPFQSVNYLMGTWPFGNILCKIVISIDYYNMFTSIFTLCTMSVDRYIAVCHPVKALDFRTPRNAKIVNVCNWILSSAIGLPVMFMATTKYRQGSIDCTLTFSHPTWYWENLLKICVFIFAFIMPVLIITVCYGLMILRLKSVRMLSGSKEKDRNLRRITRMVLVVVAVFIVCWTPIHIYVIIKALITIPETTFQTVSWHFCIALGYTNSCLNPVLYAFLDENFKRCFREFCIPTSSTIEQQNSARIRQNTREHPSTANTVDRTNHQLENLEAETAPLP
assay protocol: Opioid receptors antagonist activity in smooth-muscle tissue mouse vas deferens (MVD) in presence of NLX
Format: functional, tissue-based
Positions of bridges follow the written chain, without caps; N, C: chain ends. Residues, ends and D or L forms follow the SMILES beside them.
Listed molecules paired with reported Ke
Don't forget the unit after the value.

molecule: CC[C@H](C)[C@H](NC(=O)[C@H](CCCN=C(N)N)NC(=O)[C@H](CCCN=C(N)N)NC(=O)[C@H](CC(C)C)NC(=O)[C@H](Cc1ccccc1)NC(=O)CNC(=O)CNC(=O)[C@@H](N)Cc1ccc(O)cc1)C(=O)N[C@@H](CCCN=C(N)N)C(=O)N1CCC[C@H]1C(=O)N[C@@H](CCCCN)C(=O)N[C@@H](CC(C)C)C(=O)N[C@@H](CCCCN)C(N)=O
Ke: 100 nM
//
molecule: CC(C)C[C@H](NC(=O)[C@H](Cc1ccccc1)NC(=O)CNC(=O)CNC(=O)[C@@H](N)Cc1ccc(O)cc1)C(=O)N[C@@H](CCCN=C(N)N)C(=O)N[C@@H](CCCN=C(N)N)C(=O)N[C@@H]1CSSC[C@H](C(N)=O)NC(=O)[C@H](CC(C)C)NC(=O)[C@H](CCCCN)NC(=O)[C@@H]2CCCN2C(=O)[C@H](CCCN=C(N)N)NC1=O
Ke: 18.2 nM
//
molecule: CC[C@H](C)[C@H](NC(=O)[C@H](CCCN=C(N)N)NC(=O)[C@H](CCCN=C(N)N)NC(=O)[C@H](CC(C)C)NC(=O)[C@H](Cc1ccccc1)NC(=O)CNC(=O)CNC(=O)[C@@H](N)Cc1ccc(O)cc1)C(=O)N[C@@H](CCCN=C(N)N)C(=O)N1CCC[C@H]1C(=O)N[C@@H](CCCCN)C(N)=O
Ke: 125 nM
//
molecule: CC(C)C[C@@H]1NC(=O)[C@H](CCCCN)NC(=O)[C@@H]2CCCN2C(=O)[C@H](CCCN=C(N)N)NC(=O)[C@@H](NC(=O)[C@H](CCCN=C(N)N)NC(=O)[C@H](CCCN=C(N)N)NC(=O)[C@H](CC(C)C)NC(=O)[C@H](Cc2ccccc2)NC(=O)CNC(=O)CNC(=O)[C@@H](N)Cc2ccc(O)cc2)CSSC[C@@H](C(N)=O)NC1=O
Ke: 95.2 nM

// molecule "CC(C)C[C@@H]1NC(=O)[C@H](CCCCN)NC(=O)[C@@H]2CCCN2C(=O)[C@H](CCCN=C(N)N)NC(=O)[C@H](NC(=O)[C@H](CCCN=C(N)N)NC(=O)[C@H](CCCN=C(N)N)NC(=O)[C@H](CC(C)C)NC(=O)[C@H](Cc2ccccc2)NC(=O)CNC(=O)CNC(=O)[C@@H](N)Cc2ccc(O)cc2)CSSC[C@@H](C(N)=O)NC1=O" , assay Opioid receptor (Mus musculus) (UniProt P42866+P32300+P33534), Ke value: 30.3 nM

I looked up CC[C@H](C)[C@@H]1NC(=O)[C@H](CCCN=C(N)N)NC(=O)[C@H](CCCN=C(N)N)NC(=O)[C@@H](NC(=O)[C@H](Cc2ccccc2)NC(=O)CNC(=O)CNC(=O)[C@@H](N)Cc2ccc(O)cc2)CSSC[C@@H](C(N)=O)NC(=O)[C@@H]2CCCN2C(=O)[C@H](CCCN=C(N)N)NC1=O (H-YGGFCRRIRPC-NH2; disulfide 5-11) and its Ke for Opioid receptor (Mus musculus) (UniProt P42866+P32300+P33534) was 80 nM

---

Positions of bridges follow the written chain, without caps; N, C: chain ends. Residues, ends and D or L forms follow the SMILES beside them.
Read-out record for Kappa-type opioid receptor (Cavia porcellus, UniProt P41144): IC50
Give the number; nM is assumed, so skip it.

Sample records with IC50:
molecule: CC[C@H](C)[C@H](NC(=O)[C@H](CCCNC(=N)N)NC(=O)[C@H](CCCNC(=N)N)NC(=O)[C@H](CC(C)C)NC(=O)[C@H](Cc1ccccc1)NC(=O)CNC(=O)CNC(=O)[C@@H](N)Cc1ccc(O)cc1)C(=O)N[C@@H](CCCNC(=N)N)C(=O)N1CCC[C@H]1C(=O)N[C@@H](CCCCN)C(=O)N[C@@H](CC(C)C)C(=O)N[C@@H](CCCCN)C(=O)N[C@@H](Cc1c[nH]c2ccccc12)C(=O)N[C@@H](CC(=O)O)C(=O)N[C@@H](CC(N)=O)C(=O)N[C@@H](CCC(N)=O)C(=O)O
value unit: nM
IC50: 0.231

molecule: CC[C@H](C)[C@@H]1NC(=O)[C@H](CCCN=C(N)N)NC(=O)[C@H](CCCN=C(N)N)NC(=O)[C@@H](NC(=O)[C@H](Cc2ccccc2)NC(=O)CNC(=O)CNC(=O)[C@@H](N)Cc2ccc(O)cc2)CSSC[C@@H](C(N)=O)NC(=O)[C@@H]2CCCN2C(=O)[C@H](CCCN=C(N)N)NC1=O (H-YGGFCRRIRPC-NH2; disulfide 5-11)
value unit: nM
IC50: 0.285

molecule: C[C@H]1NC(=O)[C@H](CCCNC(=N)N)NC(=O)[C@H](CCCNC(=N)N)NC(=O)[C@@H](NC(=O)[C@H](Cc2ccccc2)NC(=O)CNC(=O)CNC(=O)[C@@H](N)Cc2ccc(O)cc2)CSSC[C@@H](C(N)=O)NC(=O)[C@@H]2CCCN2C(=O)[C@H](CCCNC(=N)N)NC1=O
value unit: nM
IC50: 0.391

molecule: CC(C)C[C@@H]1NC(=O)[C@H](CCCCN)NC(=O)[C@@H]2CCCN2C(=O)[C@H](CCCNC(=N)N)NC(=O)[C@H](NC(=O)[C@H](CCCNC(=N)N)NC(=O)[C@H](CCCNC(=N)N)NC(=O)[C@H](CC(C)C)NC(=O)[C@H](Cc2ccccc2)NC(=O)CNC(=O)CNC(=O)[C@@H](N)Cc2ccc(O)cc2)CSSC[C@@H](C(N)=O)NC1=O
value unit: nM
IC50: 1.76

molecule: CC[C@H](C)[C@H](NC(=O)[C@H](CCCN=C(N)N)NC(=O)[C@H](CCCN=C(N)N)NC(=O)[C@H](CC(C)C)NC(=O)[C@H](Cc1ccccc1)NC(=O)CNC(=O)CNC(=O)[C@@H](N)Cc1ccc(O)cc1)C(=O)N[C@@H](CCCN=C(N)N)C(=O)N1CCC[C@H]1C(=O)N[C@@H](CCCCN)C(=O)N[C@@H](CC(C)C)C(=O)N[C@@H](CCCCN)C(N)=O
value unit: nM
IC50: 0.114

Now for a further molecule.
The molecule "CC(C)C[C@@H]1NC(=O)[C@H](CCCCN)NC(=O)[C@@H]2CCCN2C(=O)[C@H](CCCN=C(N)N)NC(=O)[C@@H](NC(=O)[C@H](CCCN=C(N)N)NC(=O)[C@H](CCCN=C(N)N)NC(=O)[C@H](CC(C)C)NC(=O)[C@H](Cc2ccccc2)NC(=O)CNC(=O)CNC(=O)[C@@H](N)Cc2ccc(O)cc2)CSSC[C@@H](C(N)=O)NC1=O" , when measured on Kappa-type opioid receptor (Cavia porcellus, UniProt P41144), yielded IC50 of 0.074
